# Test system: Salmonella typhimurium
# protocol_description: Antibacterial activity against Salmonella typhimurium MTCC 98 after 24 hrs by agar well diffusion method
# Type: functional, Salmonella enterica subsp. enterica serovar Typhimurium
# settings: Salmonella enterica, MTCC 98, 24 h
Quick reference for MIC among some compounds
# unit: µg/mL | format: bare number

Take a look at these entries with their results.
COc1ccc(C2=NN(C(C)=O)C(c3ccc(NC(=O)Nc4cccc(Cl)c4F)cc3)C2)cc1OC (configuration not stated) :: 90
COc1ccc(C2=NN(C(C)=O)C(c3ccc(NS(=O)(=O)c4ccc(C(F)(F)F)cc4Br)cc3)C2)cc1OC (configuration not stated) :: 10
COc1ccc(C2=NN(C(C)=O)C(c3ccc(NS(=O)(=O)c4ccc(Br)cc4)cc3)C2)cc1OC (configuration not stated) :: 30

Let's switch to this compound now.
**Q:** Recorded MIC of COc1ccc(C2=NN(C(C)=O)C(c3ccc(NC(=O)Nc4ccc(OC(F)(F)F)cc4)cc3)C2)cc1OC (configuration not stated) , please.
**A:** 45
